Where these numbers come from: patent US7531668B2

Target or system human MCH-1R (Homo sapiens); recorded quantity IC50.
Counter-ions that a name gives are not always drawn.

# COMPOUND, IC50 (nM)
rows = [
    ("COCCN(C)Cc1ccc(NC(=O)c2cc3cc(OCc4ccccc4)ccc3[nH]2)cc1", 4.6),
    ("O=C(Nc1ccc(CN2CCOCC2)cc1)c1cc2cc(OCc3ccccc3)ccc2[nH]1 [Example 1-1, hydrochloride]", 9.6),
    ("O=C(Nc1ccc(CN2CCCC2)cc1)c1cc2cc(OCc3ccccc3)ccc2[nH]1 [Example 2-6, trifluoroacetate]", 2.6),
]
